Origin of the recorded values: patent US20160200831A1

Catalogue of koff readings, one per entry.
# measured.target: T1, cynomolgus PAI-1 (cynomolgus monkey (Macaca fascicularis), UniProt P05121 24-402 (human entry))
# T1 construct: produced in-house in E. coli (non-glycosylated); active cyno PAI-1 in the assays; also called cyno PAI-1; cPAI-1
# T1 sequence (P05121 other isoform, or with tags, fused parts or gaps limits assumed): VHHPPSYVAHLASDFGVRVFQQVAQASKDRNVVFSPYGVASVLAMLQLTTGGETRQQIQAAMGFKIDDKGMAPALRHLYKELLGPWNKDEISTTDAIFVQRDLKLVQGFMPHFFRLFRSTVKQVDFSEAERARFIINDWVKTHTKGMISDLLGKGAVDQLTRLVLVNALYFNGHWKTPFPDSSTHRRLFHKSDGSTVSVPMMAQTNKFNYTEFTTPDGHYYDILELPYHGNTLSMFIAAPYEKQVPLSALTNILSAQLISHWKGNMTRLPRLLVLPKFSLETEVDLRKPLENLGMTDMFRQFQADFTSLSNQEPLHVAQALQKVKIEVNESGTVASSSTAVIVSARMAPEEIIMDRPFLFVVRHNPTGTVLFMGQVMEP
# measurement.notes: Biacore, mAb on anti-human IgG Fc chip / cyno PAI-1, 1:1 model
Enter your answer as a number in s⁻¹; do not include the unit.

{"columns": ["binder", "unit.abbrev", "koff"],
 "data": [
  ["A44-hv11 (antibody, V domains shown, humanized A44, HEK293; compared with a human IgG1 isotype control; constant regions as for A44-hv1; also called A44V11; A44v11) VH: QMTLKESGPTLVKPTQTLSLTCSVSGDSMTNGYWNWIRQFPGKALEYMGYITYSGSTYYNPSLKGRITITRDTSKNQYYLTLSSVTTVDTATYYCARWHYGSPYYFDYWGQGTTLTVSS VL: DIKMTQSPSSLSASVGDRVTITCKASQDINSYLSWLQQKPGKSPKTLIYRAQRSVEGVPSRFSGSGSGQDYSLTISSLQPEDLGIYYCLQYDEFPPTFGGGTKLEIK", "s⁻¹", "5.6e-05"],
  ["A44-hv14 (antibody, V domains shown, humanized A44, HEK293; constant regions as for A44-hv1; also called LC4 x HC5b; variant 14) VH: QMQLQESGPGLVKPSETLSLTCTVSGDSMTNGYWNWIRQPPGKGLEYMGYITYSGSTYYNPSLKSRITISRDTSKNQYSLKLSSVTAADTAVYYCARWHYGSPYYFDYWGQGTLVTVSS VL: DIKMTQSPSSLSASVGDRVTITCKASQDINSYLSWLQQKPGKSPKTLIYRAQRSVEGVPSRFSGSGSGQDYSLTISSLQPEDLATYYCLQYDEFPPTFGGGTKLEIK", "s⁻¹", "2.69e-05"],
  ["A44-hv12 (antibody, V domains shown, humanized A44, HEK293; constant regions as for A44-hv1; also called LC4 x HC3; variant 12) VH: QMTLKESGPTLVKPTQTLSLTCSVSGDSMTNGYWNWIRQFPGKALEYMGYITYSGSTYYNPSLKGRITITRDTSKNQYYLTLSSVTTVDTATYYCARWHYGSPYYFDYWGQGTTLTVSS VL: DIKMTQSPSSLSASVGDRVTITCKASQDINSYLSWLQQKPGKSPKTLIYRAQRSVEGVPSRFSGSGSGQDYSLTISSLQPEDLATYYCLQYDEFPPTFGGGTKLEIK", "s⁻¹", "5.45e-05"]
]}

Q: Query (binder): A44-hv13 (antibody, V domains shown, humanized A44, HEK293; constant regions as for A44-hv1; also called LC2 x HC5b; variant 13) VH: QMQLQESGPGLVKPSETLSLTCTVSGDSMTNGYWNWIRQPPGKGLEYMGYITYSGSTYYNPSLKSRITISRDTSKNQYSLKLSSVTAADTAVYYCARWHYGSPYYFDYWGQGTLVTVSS VL: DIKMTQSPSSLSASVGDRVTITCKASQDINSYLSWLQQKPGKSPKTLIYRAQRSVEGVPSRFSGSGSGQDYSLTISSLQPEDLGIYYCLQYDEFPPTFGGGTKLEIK ; field requested: koff
A: 5.08e-05
